Kindly state abundance fitness for each of the entries shown.
B1: POU domain, class 3, transcription factor 1, residues 247 to 324; numbered along this chain, Q03052 (parent)
chain: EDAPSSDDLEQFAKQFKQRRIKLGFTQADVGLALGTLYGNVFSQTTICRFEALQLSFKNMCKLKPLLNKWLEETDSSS

Variants of: B1
Assay: abundance fitness (aPCA) (normalised: wild type 0, dead -1); higher = more abundant; growth selection in yeast, the domain comes from the species named
Conditions: Homo sapiens
One number for each entry.

F42Q | 0.001

Lab note: each variant below needs its abundance fitness filled in.
1. D75A
2. T46N
3. V30R
4. L55E
5. E51R
6. S78G
7. L32D
8. D29C

Return:
1: -0.015; 2: -0.373; 3: -0.975; 4: -0.438; 5: -0.501; 6: 0.153; 7: 0.182; 8: -0.592

Lab note: each variant below needs its abundance fitness filled in.
1. I47G
2. T36E

Return:
1: -0.751; 2: 0.158
